Each recorded value in this set is attributed to patent US9862717B2.

molecular target: CDK8/CycC (Homo sapiens, UniProt P49336); construct: purchased Invitrogen PV4402; experiment: FRET based Lanthascreen binding competition assay for CDK8 inhibitory activity; conditions: CDK8 co-expressed with CycC; class symbols; read-out: IC50
Sequence (P49336 whole entry): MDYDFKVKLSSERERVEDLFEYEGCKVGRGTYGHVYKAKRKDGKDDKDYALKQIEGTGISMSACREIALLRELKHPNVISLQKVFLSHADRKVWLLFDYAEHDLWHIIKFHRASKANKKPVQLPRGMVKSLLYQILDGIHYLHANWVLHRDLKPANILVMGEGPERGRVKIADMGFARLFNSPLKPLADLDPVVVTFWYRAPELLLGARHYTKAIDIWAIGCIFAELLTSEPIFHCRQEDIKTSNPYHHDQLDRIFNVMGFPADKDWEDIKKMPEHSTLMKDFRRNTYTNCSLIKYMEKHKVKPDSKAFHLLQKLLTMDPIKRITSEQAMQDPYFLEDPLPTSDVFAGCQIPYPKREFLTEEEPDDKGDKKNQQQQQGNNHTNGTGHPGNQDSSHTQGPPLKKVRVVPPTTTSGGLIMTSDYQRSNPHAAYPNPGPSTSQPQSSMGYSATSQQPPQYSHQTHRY
Sequence (P24863 whole entry partner): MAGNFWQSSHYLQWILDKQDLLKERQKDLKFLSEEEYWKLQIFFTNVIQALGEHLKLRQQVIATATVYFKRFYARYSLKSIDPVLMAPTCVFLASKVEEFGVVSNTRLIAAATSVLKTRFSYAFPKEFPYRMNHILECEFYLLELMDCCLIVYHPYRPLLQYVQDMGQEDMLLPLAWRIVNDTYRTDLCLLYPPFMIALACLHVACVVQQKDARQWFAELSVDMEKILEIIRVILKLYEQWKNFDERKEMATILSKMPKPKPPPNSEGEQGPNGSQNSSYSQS
measured_attribute: IC50

Some entries whose results are on file:
COC(=O)C1CCN(C(=O)c2cnc3[nH]nc(C)c3c2)C(c2ccccc2)C1 (centres unmarked) [compound 211] = 100 to 1000 nM
O=C(c1cnc2[nH]nc(C(F)(F)F)c2c1)N1CCC[C@@H]1c1ccc(Cl)cc1 (stereo in doubt) [compound 181] = 100 to 1000 nM
Cc1n[nH]c2ncc(C(=O)N3CCC(CCO)(c4ccc(Cl)cc4)C3)cc12 (centres unmarked) [compound 249] = 10 to 100 nM
Nc1n[nH]c2ccc(C(=O)N3CCCC3c3ccccc3)cc12 (centres unmarked) [compound 83] = 10 to 100 nM

Take each entry in turn and give its IC50.
1. Nc1n[nH]c2ccc(C(=O)N3CCCCC3Cc3ccccc3)cc12 (centres unmarked) [compound 81]
2. Cc1n[nH]c2ncc(C(=O)N3C[C@H](C(N)=O)[C@@H](c4ccc(Cl)cc4)C3)cc12 [compound 186]
3. Cc1n[nH]c2ncc(C(=O)N3CCC[C@@H]3c3ccc(C(C)C)cc3)cc12 [compound 197]
4. Cc1n[nH]c2ncc(C(=O)N3CCC(C)C3c3ccc(C(F)(F)F)cc3)cc12 (centres unmarked) [compound 159]

Reply |
["100 to 1000 nM", "100 to 1000 nM", "100 to 1000 nM", "10 to 100 nM"]
